# Tested on: DU-145 prostate
# measurement.protocol: NCI-60 one-dose screen, 48 h (100 = growth as untreated, 0 = no growth, -100 = all killed)
# condition.details: 10 µM unless noted
The panel holds about 83,000 compounds, 20% with a hit somewhere; the sample as a whole holds those more often.
reported.metric: growth (%)
Note: unit % is implicit; provide only the numeric part.

Field: example entries. Status: answers known.
compound	units.text	growth
CCOCC(O)(c1ccc(Cl)cc1)c1ccc(Cl)cc1	%	96.1
C#CC[C@@H]1C[C@]2(C)[C@H]3CC[C@@H]4[C@H]5C(C(=C)C)CC[C@]5(C(=O)NCCCCCCCCN)CC[C@@]4(C)[C@]3(C)CC[C@H]2C(C)(C)[C@H]1OC(C)=O (stereo partly drawn)	%	75.3
COc1ccc(/C=c2\c(=O)n(-c3ccccc3)c3nn4c(n23)=NNC42CCCCC2)cc1	%	106
CC(C)c1ccc(Cn2ccc3c4c(N)nc(NC5CC5)nc4ccc32)cc1	%	-89.5
ClCc1cccc(CSc2ncnc3c2ncn3Cc2cccc(CCl)c2)c1	%	50.4
C#CC[C@@H]1C[C@]2(C)[C@H]3CC=C4[C@H]5[C@@H](C)[C@H](C)CC[C@]5(C(=O)NCCCCN)CC[C@@]4(C)[C@]3(C)CC[C@H]2C(C)(C)[C@H]1OC(C)=O	%	58.6
COc1ccc(C2CC(c3cccc(Nc4ccnc5cc(Cl)ccc45)c3)=NN2c2ccccc2)cc1 (stereo not drawn)	%	82.8

Attention now shifts to the item below.
// returns reported growth for input COc1ccc(Nc2ncccc2C(=O)NCc2cn(Cc3cc(OC)cc(OC)c3)nn2)cc1
95.2

* * *

# Test system: HOP-62 NSCLC
# measurement.protocol: NCI-60 one-dose screen, 48 h
# condition.details: 10 µM unless noted
This is part of a sample that, as a whole, favours compounds with a hit. Of some 83,000 tested, about 20% had one in any assay. Activity calls are given as the source filed them. How the source made its calls: active means growth percent below 10; inactive means the rest.
API: response.call in YES for active, NO for inactive

Check out these entries, answers already filled in.
molecule	discrete.label
COc1ccc(-c2nc3ccc(Cc4ccc5nc(-c6ccc(OC)cc6)[nH]c5c4)cc3[nH]2)cc1	NO
C1=C\CCCCN2CC[C@H]3[C@H](CCCC/C=C\CCCN4C[C@@H](CCCCC/1)C[C@@H]3C4)C2	NO
CCN(CC)CCCC(C)N/C(c1cccc(OC)c1)=c1\c(=O)[nH]n(-c2c3ccccc3nc3ccccc23)c(=O)\c1=C(/NC(C)CCCN(CC)CC)c1cccc(OC)c1 (stereo not drawn)	YES

Now look at this entry.
Identify the outcome logged in this assay for the molecule shown: C#CC[C@@H]1C[C@]2(C)[C@H]3CC[C@@H]4[C@H]5C(C(=C)C)CC[C@]5(C(=O)NCCN(CCN)CCN)CC[C@@]4(C)[C@]3(C)CC[C@H]2C(C)(C)[C@H]1OC(C)=O (stereo partly drawn)
NO

* * *

# Test system: T-47D breast
# measurement.protocol: NCI-60 one-dose screen, 48 h
# condition.details: 10 µM unless noted
This is part of a sample that, as a whole, favours compounds with a hit. Of some 83,000 tested, about 20% had one in any assay. Calls of active or inactive are those of the source. The calls were made as follows: active = growth percent below 10; inactive = the rest.
Please answer using one outcome listed in active, inactive

compound	discrete.label
CN(C)c1ccc(/C=N/Nc2nnc3n2N=C(c2ccc(Cl)cc2)CS3)cc1	inactive
COc1ccc([C@@H]2[C@@H](Oc3ccccc3)C(=O)N2c2cc(OC)c(OC)c(OC)c2)cc1F	inactive

We next turn to a different compound, shown below.
# fetch the recorded call for CC(C)(C)NC(=O)C(OC(=O)C1CCc2cc(F)ccc2O1)c1ccccc1Cl (stereo unspecified) here
inactive

* * *

# System: PC-3 prostate
# measurement.protocol: NCI-60 one-dose screen, 48 h (100 = growth as untreated, 0 = no growth, -100 = all killed)
# condition.details: 10 µM unless noted
# Description: Growth inhibition of the PC-3 human tumor cell line is measured as a screen for anti-cancer activity. Cells are grown in 96 well plates and exposed to the test compound for 48 hours. Compounds are tested at a single concentration, which is 10^-5 M for most compounds. The reported endpoint is percent growth (GI% or GIPRCNT), where numbers from 0 - 100% represent growth inhibition, and numbers from -100% - 0 represent cell death. For example, a value of 40 represents 60% growth inhibition. […]
This is part of a sample that, as a whole, favours compounds with a hit. Of some 83,000 tested, about 20% had one in any assay.
reported.metric: growth (%)
Answer format: numeric, % implied, no suffix.

Take a look at these entries with their results.
compound	growth / %
Cc1nc2ccc(Nc3nc(Cl)nc(N4CCOCC4)n3)cc2n1Cc1ccccc1	87.1
CCCCC(CCc1ccccn1)C(=O)c1ccccc1 (stereo not given)	98.2
CC(=O)[C@H]1CC[C@H]2[C@@H]3CC[C@H]4CC=CC[C@]4(C)[C@H]3CC[C@]12C	58
O=C(O)C1[S][Sb]([CH](C(=O)O)[CH](C(=O)O)[Sb]2[S]C(C(=O)O)C(C(=O)O)[S]2)[S]C1C(=O)O (stereo not given)	83.4

Entry O=S(=O)(NCC[C@@H]1C[C@H]1c1ccc2ccccc2c1)c1ccc(C(F)(F)F)cc1 : reported growth = ?
81.7

Which value of growth has been reported for CC(=O)c1c(O)c(C)c(O)c2c1OC1=CC(=O)/C(=C(/C)N)C(=O)C12C (stereo not given) in the records?
85.1

Look up growth: COc1ccc(C(=O)C(C#N)c2cc(OC)c(OC)c(OC)c2)cc1 (stereo not given)
99

What growth value was documented for this compound, FC(F)(F)c1ccc(/C=N/Nc2nnc3n2N=C(c2ccc(Cl)cc2)CS3)cc1 ?
53.1

Query: growth; subject: COc1cc(C2CC(c3ccc(Cl)cc3)=NN2C=O)ccc1OS(=O)(=O)c1ccc(C)cc1 (stereo not given)
94.4

* * *

# Tested on: RPMI-8226 leukemia
# measurement.protocol: NCI-60 one-dose screen, 48 h (100 = growth as untreated, 0 = no growth, -100 = all killed)
# condition.details: 10 µM unless noted
Compounds without any hit were thinned out: in the full panel of roughly 83,000, 20% have a hit.
API: label(entry) gives Yes if the entry's growth is strictly smaller than 20%; on equality or larger values it gives No.

compound	discrete.label
COc1ccc2nc(C)cc(Nc3ccccc3O)c2c1	No
O=C(c1ccc(C(F)(F)F)c(Cl)c1)N(Cc1ccc(Cl)cc1)c1ccc(-c2cc(C(F)(F)F)[nH]n2)c(O)c1	Yes
O=C1CC2(O)CSc3nc(=O)cc(n32)N1 (stereo unspecified)	No
C/C(=N\NC(=S)Nc1ccccc1)c1ccccn1	No

Please check: growth for N#Cc1ccc(NC(=O)Nc2nc3ccc(OC(F)(F)F)cc3s2)cc1 , strictly under 20% or not?
Yes

# strict comparison: is reported growth < 20%? input = O=C(NO)c1ccc(NCc2csc3ccccc23)cc1
No

* * *

Entries annotated with measured growth
# Tested on: A549/ATCC NSCLC
# measurement.protocol: NCI-60 one-dose screen, 48 h (100 = growth as untreated, 0 = no growth, -100 = all killed)
# condition.details: 10 µM unless noted
Compounds without any hit were thinned out: in the full panel of roughly 83,000, 20% have a hit.
Write down the numeric answer in % and omit the unit.

Some compounds with known growth results, for comparison:
compound	reported.metric	readout.value
Nc1nonc1-c1nc2ccccc2n1Cc1ccc(F)cc1	growth	39.1
CC(=O)N[C@@H](CCC(N)=O)C(=O)O	growth	88.2
COc1ccc2[nH]cc(/C=C3\C(=O)Nc4ccccc43)c2c1	growth	26.5
COc1cc2nccc(Oc3ccc(NC(=O)C4(C(=O)Nc5c(F)cc(F)cc5F)CC4)cc3)c2cc1Oc1ccc(N)cn1	growth	48
CC(C)(C)c1ccc(Cn2c(-c3nonc3N)nc3ccccc32)cc1	growth	68.4
Cc1ccc(NC(=O)Cn2nncc2CN2C(=O)CSC2=O)cc1C	growth	102
COc1cc(/C=C/c2ccc3c(Br)cc(Br)c(O)c3n2)ccc1O	growth	14.2
C=CC[C@]1(O)CC[C@H]2[C@@H]3CCc4cc(O)ccc4[C@H]3CC[C@@]21C	growth	91.3
CNCc1ccccc1CN(CC(=O)Nc1ccc2c(c1)CC1(C2)C(=O)Nc2ncccc21)C(=O)C(C)(C)C (stereo not given)	growth	103
COc1cc(-c2n/c(=C\c3c(O)[nH]c4cc(Cl)ccc34)cc3c2=Nc2ccccc2-3)cc(OC)c1OC	growth	59.5

Requested field: growth. Item: Cc1nc2ccc(Nc3nc(N4CCOCC4)nc(N4CCN(C)CC4)n3)cc2n1Cc1ccccc1
85.1

For O=C1C2=C(C(=O)c3c(O)ccc(O)c31)N(c1ccc(N3CCOCC3)nc1)Cc1ccccc1O2 , what is its reported growth?
-23.2

Which growth value belongs to COc1cc(/C=C/C(=O)c2ccc(NC(=O)CSc3nnc(-c4ccc(Cl)cc4)n3-c3ccccc3)cc2)cc(OC)c1OC ?
69.8

Look up growth for this compound: OC(c1cc2c(Cl)cc(Cl)cc2c2cc(C(F)(F)F)ccc12)C1CCCCN1 (stereo not given)
-80.9

Entry CC1=NN(c2cccc(S(N)(=O)=O)c2)C(=O)C1 : reported growth = ?
87.4

Entry COc1ccc(-c2cnc3ccnn3c2-c2cc(OC)c(OC)c(OC)c2)cc1 : reported growth = ?
46.8

Any idea what its growth is? The compound is COC(=O)/C=C/c1cc(OC(C)=O)c2c(c1)[C@@H](C(=O)OC)[C@H](c1ccc(OC(C)=O)c(OC(C)=O)c1)O2
20.6
